Reference for the values: paper PMC4336329

- system name: human ether-à-go-go-related gene (hERG) potassium channel (human);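 further: peak tail current of the secondary pulse compared with the same well before compound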
- Sequence (Q12809 whole entry, looked up): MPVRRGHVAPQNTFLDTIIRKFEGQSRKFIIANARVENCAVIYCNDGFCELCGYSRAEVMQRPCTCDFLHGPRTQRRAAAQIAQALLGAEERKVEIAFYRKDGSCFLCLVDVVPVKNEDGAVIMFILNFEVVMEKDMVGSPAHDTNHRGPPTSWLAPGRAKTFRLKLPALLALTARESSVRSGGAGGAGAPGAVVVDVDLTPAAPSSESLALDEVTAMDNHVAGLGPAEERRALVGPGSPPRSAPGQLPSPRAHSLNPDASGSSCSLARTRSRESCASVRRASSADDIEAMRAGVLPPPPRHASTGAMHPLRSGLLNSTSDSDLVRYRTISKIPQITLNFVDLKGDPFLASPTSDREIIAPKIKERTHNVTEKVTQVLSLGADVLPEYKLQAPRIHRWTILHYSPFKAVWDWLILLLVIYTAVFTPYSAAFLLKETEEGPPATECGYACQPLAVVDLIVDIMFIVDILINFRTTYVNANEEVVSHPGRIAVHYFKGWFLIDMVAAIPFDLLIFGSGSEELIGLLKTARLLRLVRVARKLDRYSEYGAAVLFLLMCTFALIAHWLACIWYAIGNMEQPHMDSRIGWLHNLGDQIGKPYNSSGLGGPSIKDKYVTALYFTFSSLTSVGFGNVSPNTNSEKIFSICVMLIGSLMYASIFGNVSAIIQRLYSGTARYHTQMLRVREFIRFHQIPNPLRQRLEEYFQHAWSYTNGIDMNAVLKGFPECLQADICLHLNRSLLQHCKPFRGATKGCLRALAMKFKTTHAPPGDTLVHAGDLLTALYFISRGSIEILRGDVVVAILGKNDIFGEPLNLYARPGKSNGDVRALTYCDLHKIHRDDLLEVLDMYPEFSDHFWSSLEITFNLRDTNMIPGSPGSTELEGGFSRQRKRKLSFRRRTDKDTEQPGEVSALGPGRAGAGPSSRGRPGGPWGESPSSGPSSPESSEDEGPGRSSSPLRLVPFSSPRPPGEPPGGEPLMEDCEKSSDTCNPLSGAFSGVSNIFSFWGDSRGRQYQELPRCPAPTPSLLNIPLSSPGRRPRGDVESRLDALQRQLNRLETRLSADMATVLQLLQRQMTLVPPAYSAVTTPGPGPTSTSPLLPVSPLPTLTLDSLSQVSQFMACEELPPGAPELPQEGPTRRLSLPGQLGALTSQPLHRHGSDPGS
- protocol notes: primary screen, population patch clamp on CHO cells stably expressing hERG; higher = less effect of the substance
About 14,000 (4.5%) of roughly 310,000 compounds showed an effect of 50% or more. The effect is printed as a negative number. Shown is part of a subset that was picked to be rich in strong results.
// values below are reported hERG current change (%, negative = inhibition) at 10uM
The reply should contain only the number, in %.

>>> number("CCOC(=O)c1nnn(-c2nonc2N)c1CN(CC)CC")
-7.44
>>> number("CC1(C)CC(N2CCN(Cc3ccccc3)CC2)=CC(=[N+]2CCCCC2)C1.[I-]")
7.04
>>> number("CC1(C)CC(N2CCN(C(c3ccccc3)c3ccccc3)CC2)=CC(=[N+]2CCCCC2)C1.[I-]")
-72.1
>>> number("COc1ccc(NC(=O)CCCC2=NS(=O)(=O)c3ccccc3N2)cc1")
17
>>> number("Cc1nn2c(C(F)(F)F)cc(-c3ccc(Cl)cc3)nc2c1C(=O)N1CCOCC1")
-13.6
>>> number("COc1ccc(C(=O)Nc2nc(C)c(C(C)=O)s2)cc1S(=O)(=O)N1CCOCC1")
0.765
>>> number("CCN(CC)c1ccc(C(=O)OCC(=O)Nc2ccc3[nH]c(=O)[nH]c3c2)cc1")
5.58
>>> number("CC1(C)CC(N2CCCC2)=CC(=[N+]2CCCCCC2)C1.[I-]")
-8.68
>>> number("CC1(C)CC(N2CCCC2)=CC(=[N+]2CCCCC2)C1.[I-]")
3.58
>>> number("CC1(C)CC(N2CCN(c3ccccc3)CC2)=CC(=[N+]2CCCC2)C1.[I-]")
-15.3

Query :: Find hERG current change (%, negative = inhibition) at 10uM for `O=C(Nc1ccccc1F)c1ccc2c(c1)OCO2` on human ether-à-go-go-related gene (hERG) potassium channel (human) and write it down.
Result :: 15.7

Query :: Please respond with reported hERG current change (%, negative = inhibition) at 10uM (system human ether-à-go-go-related gene (hERG) potassium channel (human)) for `CCCN(CCC)C1=CC(=[N+]2CCCC2)CC(C)(C)C1.[I-]` .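 Further: peak tail current of the secondary pulse compared with the same well before compound.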
Result :: -72.4
